Cited source: ChEMBL document CHEMBL3352514

Catalogue of GI50 values
system: K562; assay: Growth inhibition of human K562 cells; assay type: functional
Only the number, expressed in µM, is required.

[
  {
    "COMPOUND": "C=C1C(=O)O[C@H]2[C@H]1CC/C(COC(=O)NCCN1CCOCC1)=C\\CC[C@@]1(C)O[C@@H]21",
    "UNIT LABEL": "µM",
    "GI50": 3.37
  },
  {
    "COMPOUND": "C/C1=C\\CC[C@@]2(C)O[C@@H]2[C@H]2OC(=O)C(CN(C)C)[C@@H]2CC1 (some centres undefined) [DIMETHYLAMINOPARTHENOLIDE]",
    "UNIT LABEL": "µM",
    "GI50": 2.51
  }
]

Exercise: Quick check: GI50 of C=C1C(=O)O[C@H]2[C@H]1CC/C(COC(=O)NCCN1CCCC1)=C\CC[C@@]1(C)O[C@@H]21 ?
Solution: 3.26

Exercise: Proceed to C=C1C(=O)O[C@H]2[C@H]1CC/C(COC(=O)N1CCC(F)(F)CC1)=C\CC[C@@]1(C)O[C@@H]21
Solution: 3.45

###

Overview of recorded GI50 for various compounds
system: IGROV-1; experiment: Growth inhibition of human IGROV1 cells; format: functional
Just the number in µM, nothing appended.

Example compounds with recorded GI50:
[
  {
    "COMPOUND": "C/C1=C\\CC[C@@]2(C)O[C@@H]2[C@H]2OC(=O)C(CN(C)C)[C@@H]2CC1 (stereo partly specified) [DIMETHYLAMINOPARTHENOLIDE]",
    "EXPERIMENTAL TARGET": "IGROV-1",
    "UNIT LABEL": "µM",
    "VALUE": 19.9
  },
  {
    "COMPOUND": "C=C1C(=O)O[C@H]2[C@H]1CC/C(COC(=O)NCCc1ccccn1)=C\\CC[C@@]1(C)O[C@@H]21",
    "EXPERIMENTAL TARGET": "IGROV-1",
    "UNIT LABEL": "µM",
    "VALUE": 14.4
  },
  {
    "COMPOUND": "C=C1C(=O)O[C@H]2[C@H]1CC/C(COC(=O)NCCN1CCOCC1)=C\\CC[C@@]1(C)O[C@@H]21",
    "EXPERIMENTAL TARGET": "IGROV-1",
    "UNIT LABEL": "µM",
    "VALUE": 3.49
  },
  {
    "COMPOUND": "C=C1C(=O)O[C@H]2[C@H]1CC/C(COC(=O)N1CCC(F)(F)CC1)=C\\CC[C@@]1(C)O[C@@H]21",
    "EXPERIMENTAL TARGET": "IGROV-1",
    "UNIT LABEL": "µM",
    "VALUE": 2.31
  },
  {
    "COMPOUND": "C=C1C(=O)O[C@H]2[C@H]1CC/C(COC(=O)Nc1n[nH]c(SC)n1)=C\\CC[C@@]1(C)O[C@@H]21",
    "EXPERIMENTAL TARGET": "IGROV-1",
    "UNIT LABEL": "µM",
    "VALUE": 3.66
  }
]

Now consider the entry below.
Exercise: Could you tell me which GI50 is on file for C=C1C(=O)O[C@H]2[C@H]1CC/C(COC(=O)NCCN1CCCC1)=C\CC[C@@]1(C)O[C@@H]21 ?
Solution: 4.09

###

system: SW-620; assay: Growth inhibition of human SW620 cells; assay type: functional
Listing of recorded GI50 by entry.
// units = µM; emit number, no label

[
  {
    "COMPOUND": "C=C1C(=O)O[C@H]2[C@H]1CC/C(COC(=O)NCCN1CCCC1)=C\\CC[C@@]1(C)O[C@@H]21",
    "UNIT LABEL": "µM",
    "GI50": 3.46
  },
  {
    "COMPOUND": "C=C1C(=O)O[C@H]2[C@H]1CC/C(COC(=O)N1CCC(F)(F)CC1)=C\\CC[C@@]1(C)O[C@@H]21",
    "UNIT LABEL": "µM",
    "GI50": 1.46
  }
]

Exercise: Fill in the recorded GI50 for this compound, with SW-620 as test system: C=C1C(=O)O[C@H]2[C@H]1CC/C(COC(=O)NCCN1CCOCC1)=C\CC[C@@]1(C)O[C@@H]21
Solution: 3.48

Exercise: # repeat for C/C1=C\CC[C@@]2(C)O[C@@H]2[C@H]2OC(=O)C(CN(C)C)[C@@H]2CC1 (stereo partly specified) [DIMETHYLAMINOPARTHENOLIDE]
Solution: 3.98

Exercise: // repeat for C=C1C(=O)O[C@H]2[C@H]1CC/C(COC(=O)Nc1n[nH]c(SC)n1)=C\CC[C@@]1(C)O[C@@H]21 and report
Solution: 1.12

Exercise: What do you get for C=C1C(=O)O[C@H]2[C@H]1CC/C(COC(=O)NCCc1ccccn1)=C\CC[C@@]1(C)O[C@@H]21 ?
Solution: 3.13

###

assay: Growth inhibition of human COLO205 cells; type: functional; conditions: COLO 205
ENDPOINT: GI50
Note: a bare number is incomplete; add the unit.

Some solved cases for reference:
[
  {
    "MOLECULE": "C=C1C(=O)O[C@H]2[C@H]1CC/C(COC(=O)NCCc1ccccn1)=C\\CC[C@@]1(C)O[C@@H]21",
    "GI50": "3.54 µM"
  },
  {
    "MOLECULE": "C=C1C(=O)O[C@H]2[C@H]1CC/C(COC(=O)Nc1n[nH]c(SC)n1)=C\\CC[C@@]1(C)O[C@@H]21",
    "GI50": "1.79 µM"
  },
  {
    "MOLECULE": "C=C1C(=O)O[C@H]2[C@H]1CC/C(COC(=O)N1CCC(F)(F)CC1)=C\\CC[C@@]1(C)O[C@@H]21",
    "GI50": "2.06 µM"
  }
]

Exercise: Would you mind telling me what GI50 value was observed for C=C1C(=O)O[C@H]2[C@H]1CC/C(COC(=O)NCCN1CCOCC1)=C\CC[C@@]1(C)O[C@@H]21 ?
Solution: 8.89 µM

Exercise: // repeat for C/C1=C\CC[C@@]2(C)O[C@@H]2[C@H]2OC(=O)C(CN(C)C)[C@@H]2CC1 (stereo partly specified) [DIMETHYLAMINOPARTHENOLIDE] and report
Solution: 31.6 µM

Exercise: Can you handle C=C1C(=O)O[C@H]2[C@H]1CC/C(COC(=O)NCCN1CCCC1)=C\CC[C@@]1(C)O[C@@H]21 next?
Solution: 4.78 µM

###

tested on: MDA-MB-468; assay: Growth inhibition of human MDA-MB-468 cells; format: functional
ENDPOINT: GI50 (µM)
Note: unit µM is implicit; provide only the numeric part.

Consider the worked cases shown below.
[
  {
    "RECORD SMILES": "C=C1C(=O)O[C@H]2[C@H]1CC/C(COC(=O)N1CCC(F)(F)CC1)=C\\CC[C@@]1(C)O[C@@H]21",
    "ENDPOINT": "GI50",
    "UNIT LABEL": "µM",
    "VALUE": 0.57
  },
  {
    "RECORD SMILES": "C=C1C(=O)O[C@H]2[C@H]1CC/C(COC(=O)NCCc1ccccn1)=C\\CC[C@@]1(C)O[C@@H]21",
    "ENDPOINT": "GI50",
    "UNIT LABEL": "µM",
    "VALUE": 3.22
  }
]

Kindly consider the entry below.
Exercise: Give recorded GI50 with MDA-MB-468 for the following compound: C=C1C(=O)O[C@H]2[C@H]1CC/C(COC(=O)NCCN1CCOCC1)=C\CC[C@@]1(C)O[C@@H]21
Solution: 3.26
